# procedureText: Plasma concentrations of A1 and A2 after oral administration, mice
# Assay type: in vivo
# experimentalConditions: mouse, after mixture A1 A2 574 mg/m^2 p.o., 5 MIN, n = 10
reportedEndpoint: concentration at 5 min (µM)
# unit: µM | format: bare number

- C[S+]([O-])CCN(N=O)C(=O)NCCCl (centres unmarked): 208

Now take the following compound into account.
Consider the compound shown here: C[S+]([O-])CCNC(=O)N(CCCl)N=O (centres unmarked) What is its recorded concentration at 5 min?
83

---

Each item that follows carries a reported concentration at 0.75 h.
# procedureText: Plasma concentrations of A1 and A2 after oral administration, mice
# Format: in vivo
# experimentalConditions: mouse, after mixture A1 A2 574 mg/m^2 p.o., 45 MIN, n = 10
# unit: µM | format: bare number

- C[S+]([O-])CCN(N=O)C(=O)NCCCl (centres unmarked): 124

Now take the following compound into account.
Consider the compound shown here: C[S+]([O-])CCNC(=O)N(CCCl)N=O (centres unmarked) What is its recorded concentration at 0.75 h?
43.7

---

# procedureText: Plasma concentrations of A1 and A2 after oral administration, rabbits
# Type: in vivo
# experimentalConditions: rabbit, after CNCC 500 mg/m^2 p.o., 5 MIN, n = 5
Each item that follows carries a reported concentration at 5 min.
# unit: µM | format: bare number

* C[S+]([O-])CCNC(=O)N(CCCl)N=O (centres unmarked) | 1.8

Now take the following compound into account.
Consider the compound shown here: C[S+]([O-])CCN(N=O)C(=O)NCCCl (centres unmarked) What is its recorded concentration at 5 min?
5

---

Each item that follows carries a reported concentration at 1 h.
# procedureText: Plasma concentrations of A1 and A2 after oral administration, rabbits
# Type: in vivo
# experimentalConditions: rabbit, after mixture A1 A2 574 mg/m^2 p.o., 1 H, n = 5
# Procedure: The plasma absorption and clearance kinetics of the products A1 and A2 according to the invention were studied on different animal species after oral administration. A mixture A1 A2 in the proportions 70%/30% was used so as to be able to make a comparison with CNCC. The mixture A1 A2 and the CNCC were administered at equivalent doses and the plasma concentrations of A1 and A2 were measured as a function of time. cl (a) Experimental protocol […]
Don't forget the unit after the value.

* C[S+]([O-])CCN(N=O)C(=O)NCCCl (centres unmarked) [Compound A1] | 39.4 µM

Consider the compound shown here: C[S+]([O-])CCNC(=O)N(CCCl)N=O (centres unmarked) [Compound A2] What is its recorded concentration at 1 h?
14.2 µM

---

# procedureText: Plasma concentrations of A1 and A2 after oral administration, mice
# Format: in vivo
# experimentalConditions: mouse, after CNCC 500 mg/m^2 p.o., 4 H 30 MIN, n = 10
Each item that follows carries a reported concentration at 4.5 h.
# unit: µM | format: bare number

- C[S+]([O-])CCNC(=O)N(CCCl)N=O (centres unmarked): 3.5

Now take the following compound into account.
Consider the compound shown here: C[S+]([O-])CCN(N=O)C(=O)NCCCl (centres unmarked) What is its recorded concentration at 4.5 h?
6.5

---

Each item that follows carries a reported concentration at 2 h.
# procedureText: Plasma concentrations of A1 and A2 after oral administration, rabbits
# Type: in vivo
# experimentalConditions: rabbit, after mixture A1 A2 574 mg/m^2 p.o., 2 H, n = 5
# unit: µM | format: bare number

- C[S+]([O-])CCN(N=O)C(=O)NCCCl (centres unmarked): 19.4

Now take the following molecule into account.
Consider the molecule shown here: C[S+]([O-])CCNC(=O)N(CCCl)N=O (centres unmarked) What is its recorded concentration at 2 h?
6.3
